Source of measurements: ChEMBL document CHEMBL4814074

# System: Lassa virus
# assay.method.text: Antiviral activity against pseudotyped Lassa mammarenavirus
# Type: functional, organism-based
# applied.conditions: Mammarenavirus lassaense
pEC50: −log10 of the molar value.
reported.endpoint: pEC50

>  <entry.smiles>
CC(C)Oc1ccc(-c2ccn3cnc(-c4ccc(OC(C)C)cc4)c3c2)cc1

>  <test.target>
Lassa virus

>  <operator>
=

>  <reported.measurement>
7.68

$$$$
>  <entry.smiles>
CC(C)Oc1ccc(-c2cnc3ccc(-c4ccc(C(N)=O)cc4)cn23)cc1

>  <test.target>
Lassa virus

>  <operator>
<

>  <reported.measurement>
7.60

$$$$
>  <entry.smiles>
Cc1cc2ncn(-c3ccc(OC(C)(C)C)cc3)c2cc1-c1ccc(OC(C)(C)O)cc1

>  <test.target>
Lassa virus

>  <operator>
=

>  <reported.measurement>
8.40

$$$$
>  <entry.smiles>
CC(C)Oc1ccc(-c2ccc3cnn(-c4ccc(OC(C)C)cc4)c3c2)cc1

>  <test.target>
Lassa virus

>  <operator>
<

>  <reported.measurement>
7.60

$$$$
>  <entry.smiles>
CC(C)Oc1ccc(-c2ccc3ccn(-c4ccc(OC(C)C)cc4)c3c2)cc1

>  <test.target>
Lassa virus

>  <operator>
<

>  <reported.measurement>
7.60

$$$$
>  <entry.smiles>
Cc1c(-c2ccc(OC(C)C)cc2)ccc2ncc(-c3ccc(OC(C)C)cc3)n12

>  <test.target>
Lassa virus

>  <operator>
=

>  <reported.measurement>
9.49

$$$$
>  <entry.smiles>
CC(C)Oc1ccc(-c2ccc3cnc(-c4ccc(OC(C)C)cc4)n3c2)cc1

>  <test.target>
Lassa virus

>  <operator>
<

>  <reported.measurement>
7.60

$$$$
>  <entry.smiles>
Cc1cc2nnn(-c3ccc(OC(C)C)cc3)c2cc1-c1ccc(OC(C)C)cc1

>  <test.target>
Lassa virus

>  <operator>
=

>  <reported.measurement>
8.98

$$$$
>  <entry.smiles>
Cc1cc2ncc(-c3ccc(OC(C)(C)C)cc3)n2cc1-c1ccc(OC(C)C)cc1

>  <test.target>
Lassa virus

>  <operator>
=

>  <reported.measurement>
9.17

$$$$
>  <entry.smiles>
Cc1cc2ncn(-c3ccc(OC(C)C)cc3)c2cc1-c1ccc(OC(C)C)cc1

>  <test.target>
Lassa virus

>  <operator>
=

>  <reported.measurement>
9.19

$$$$
>  <entry.smiles>
CC(C)Oc1ccc(-c2cnc3ccc(-c4ccc(OC(C)C)cc4F)cn23)cc1

>  <test.target>
Lassa virus

>  <operator>
<

>  <reported.measurement>
7.60

$$$$
>  <entry.smiles>
CC(C)Oc1ccc(-c2cnc3ccc(-c4ccc(OCCN5CCOCC5)cc4)cn23)cc1

>  <test.target>
Lassa virus

>  <operator>
<

>  <reported.measurement>
7.60

$$$$
